B1: HDV Ribozyme (parent)
chain: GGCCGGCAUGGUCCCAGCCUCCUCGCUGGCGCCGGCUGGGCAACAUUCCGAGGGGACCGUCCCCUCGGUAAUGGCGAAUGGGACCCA

Variants of: B1
Assay Remarks: self-cleavage, relative activity (ratio to wild type); higher = more cleavage; co-transcriptional
Grouping key: self-cleavage. Bins: low range = under 0.1, mid range = from 0.1 up to 0.4, high range = 0.4 and over

Mutation Spec	Cat
C7U G25C	low range
U12G G38U	low range
G54C G80A	mid range
C22U C36A	low range
C22G G28A	low range
C21A U60A	low range
G54U C57A	high range
G11A C57U	mid range
C14A G25U	low range
G10U G52C	high range
C24G A56G	low range
C22G C64U	low range
G25U G29A	low range
G5A A51G	mid range
G50U C84G	high range
U12A C63U	high range
A8U G17U	mid range
G35A C36A	mid range
G1A G67U	mid range
G82A	high range
G29A G38A	low range
G31C C84U	mid range
G59U G81U	high range
U12C G52C	mid range
C26A U47A	high range
C24G A56C	low range
C18A U37A	low range
C48U G53U	high range
C13U A16C	high range
C7G C13U	mid range
C3U G53A	high range
A51C A77U	high range
G39A A56C	high range
C30A U37G	low range
A8G C84A	high range
C4A C48U	mid range
G1C	mid range
U20A C26G	low range
A8G G11U	low range
G25C A51C	mid range
G28A G67C	low range
C49A	high range
C13A A56C	mid range
G29A C62G	mid range
A16U C30G	mid range
G25C C30U	low range
C15A C58A	mid range
U27C G52A	high range
A8U C13G	low range
C32G C84U	low range
C15G U23C	mid range
G10U C14U	high range
C41A C66A	high range
G11A A70G	mid range
A45U A51U	high range
G29A C32G	low range
U37A U79A	mid range
U12G	high range
G31A U69A	high range
G34A A45U	mid range
G2C U9A	low range
C21G C84G	low range
U23G G67U	high range
U23C U72C	high range
C33G G68U	mid range
G25C C26A	mid range
G11A A87C	high range
A45U G67A	high range
U20C C86U	mid range
G52U G76A	high range
U12C A83C	mid range
C18U A56G	high range
G5U C57A	mid range
C21A C41A	mid range
C3G A87G	high range
U65G A70U	high range
G38U U72A	low range
G17A A71U	high range
A8G U20G	mid range
U9G C48G	high range
A8C A87U	high range
C4G G67U	mid range
C30A G34U	mid range
U27C G54U	high range
C44G U69A	high range
C33U U72C	mid range
C33U A83C	mid range
U12C C49U	mid range
